The compounds listed here are annotated with their AUC(0-t).
protocol.notes: Pharmacokinetics alone and in combination, selumetinib + erlotinib arm
assay.setup: human, plasma, oral, AUC(0–12), geometric mean (% CV); dosed in combination, selumetinib 50 mg BID (N = 12) + erlotinib 100 mg QD
Field: value (include unit after the number)

Item under review: C#Cc1cccc(Nc2ncnc3cc(OCCOC)c(OCCOC)cc23)c1 [Erlotinib, reference compound] . Reported AUC(0-t)?
14700 ng·h/mL

Try this compound too: Cn1cnc2c(F)c(Nc3ccc(Br)cc3Cl)c(C(=O)NOCCO)cc21
4010 ng·h/mL

====

protocol.notes: Pharmacokinetics alone and in combination, selumetinib + erlotinib arm
assay.setup: human, plasma, oral, Cmax, geometric mean (% CV); dosed in combination, selumetinib 75 mg BID (N = 6) + erlotinib 100 mg QD
quantity.kind: Cmax (ng/mL)
Numbers only here, please. The scale is ng/mL.

Which Cmax value is on record for Cn1cnc2c(F)c(Nc3ccc(Br)cc3Cl)c(C(=O)NOCCO)cc21 ?
1660

====

protocol.notes: Pharmacokinetics alone and in combination, selumetinib + erlotinib arm
assay.setup: human, plasma, oral, 100 mg, AUC(0–12), geometric mean; QD cohorts; dosed alone, selumetinib 100 mg cohort (N = 6); erlotinib 100 mg QD
quantity.kind: AUC(0-t) (µg·h/mL)
Hi! Could you send only the number? It should be in µg·h/mL, unit omitted.

# molecule, unit.descriptor, number
records = [
    ("C#Cc1cccc(Nc2ncnc3cc(OCCOC)c(OCCOC)cc23)c1 [Erlotinib, reference compound]", "µg·h/mL", 10.3),
]

Turning now to a further record.
Quick one: AUC(0-t) for Cn1cnc2c(F)c(Nc3ccc(Br)cc3Cl)c(C(=O)NOCCO)cc21 [Selumetinib] ?
5

====

protocol.notes: Pharmacokinetics alone and in combination, selumetinib + temsirolimus arm
Type: in vivo, human
assay.setup: human, plasma, iv, geometric mean (% CV); dosed in combination, selumetinib 50 mg BID (N = 22) + temsirolimus 25 mg IV; read-out: AUC(0–8)
Parameter: AUC(0-t). Scope: all listed entries.
Numeric answer plus unit only.

# annotated cases, reported AUC(0-t) shown
# smiles.notation, AUC(0-t)
records = [
    ("Cn1cnc2c(F)c(Nc3ccc(Br)cc3Cl)c(C(=O)NOCCO)cc21", "1840 ng·h/mL"),
    ("CO[C@H]1C[C@@H]2CC[C@@H](C)[C@@](O)(O2)C(=O)C(=O)N2CCCC[C@H]2C(=O)O[C@H]([C@H](C)C[C@@H]2CC[C@@H](OC(=O)C(C)(CO)CO)[C@H](OC)C2)CC(=O)[C@H](C)/C=C(\\C)[C@@H](O)[C@@H](OC)C(=O)[C@H](C)C[C@H](C)/C=C/C=C/C=C/1C", "1460 ng·h/mL"),
]

API: the following record is the query input.
Name the recorded AUC(0-t) for CO[C@H]1C[C@@H]2CC[C@@H](C)[C@@](O)(O2)C(=O)C(=O)N2CCCC[C@H]2C(=O)O[C@H]([C@H](C)C[C@@H]2CC[C@@H](O)[C@H](OC)C2)CC(=O)[C@H](C)/C=C(\C)[C@@H](O)[C@@H](OC)C(=O)[C@H](C)C[C@H](C)/C=C/C=C/C=C/1C .
394 ng·h/mL

====

Entries and their Cmax
protocol.notes: Pharmacokinetics alone and in combination, selumetinib + temsirolimus arm
Type: in vivo, human
assay.setup: human, plasma, iv, geometric mean (% CV); dosed in combination, selumetinib 75 mg BID (N = 5) + temsirolimus 25 mg IV; read-out: Cmax
Answer in ng/mL, number only, no unit symbol.

# smiles.notation, quantity.kind, number
data = [
    ("Cn1cnc2c(F)c(Nc3ccc(Br)cc3Cl)c(C(=O)NOCCO)cc21", "Cmax", 887),
]

Can you share its Cmax? I mean this compound: CO[C@H]1C[C@@H]2CC[C@@H](C)[C@@](O)(O2)C(=O)C(=O)N2CCCC[C@H]2C(=O)O[C@H]([C@H](C)C[C@@H]2CC[C@@H](OC(=O)C(C)(CO)CO)[C@H](OC)C2)CC(=O)[C@H](C)/C=C(\C)[C@@H](O)[C@@H](OC)C(=O)[C@H](C)C[C@H](C)/C=C/C=C/C=C/1C
695

Queued: CO[C@H]1C[C@@H]2CC[C@@H](C)[C@@](O)(O2)C(=O)C(=O)N2CCCC[C@H]2C(=O)O[C@H]([C@H](C)C[C@@H]2CC[C@@H](O)[C@H](OC)C2)CC(=O)[C@H](C)/C=C(\C)[C@@H](O)[C@@H](OC)C(=O)[C@H](C)C[C@H](C)/C=C/C=C/C=C/1C
51.2

====

protocol.notes: Pharmacokinetics alone and in combination, selumetinib + temsirolimus arm
Assay type: in vivo, human
assay.setup: human, plasma, iv, median (range); dosed in combination, selumetinib 50 mg BID (N = 22) + temsirolimus 25 mg IV; read-out: tmax
quantity.kind: tmax (h)
Give the quantity in h, number only.

Consider the molecule CO[C@H]1C[C@@H]2CC[C@@H](C)[C@@](O)(O2)C(=O)C(=O)N2CCCC[C@H]2C(=O)O[C@H]([C@H](C)C[C@@H]2CC[C@@H](O)[C@H](OC)C2)CC(=O)[C@H](C)/C=C(\C)[C@@H](O)[C@@H](OC)C(=O)[C@H](C)C[C@H](C)/C=C/C=C/C=C/1C [Sirolimus] and give its measured tmax.
1.5

====

protocol.notes: Pharmacokinetics alone and in combination, selumetinib + temsirolimus arm
Type: in vivo, human
assay.setup: human, plasma, iv, geometric mean (% CV); dosed alone, selumetinib 75 mg cohort (N = 6); temsirolimus 25 mg IV; read-out: AUC(0–8)
Each item that follows carries a reported AUC(0-t).
Reply with just the number (in ng·h/mL).

# smiles.notation, quantity.kind, unit.descriptor, number
records = [
    ("Cn1cnc2c(F)c(Nc3ccc(Br)cc3Cl)c(C(=O)NOCCO)cc21", "AUC(0-t)", "ng·h/mL", 2990),
]

Consider the compound shown here: CO[C@H]1C[C@@H]2CC[C@@H](C)[C@@](O)(O2)C(=O)C(=O)N2CCCC[C@H]2C(=O)O[C@H]([C@H](C)C[C@@H]2CC[C@@H](O)[C@H](OC)C2)CC(=O)[C@H](C)/C=C(\C)[C@@H](O)[C@@H](OC)C(=O)[C@H](C)C[C@H](C)/C=C/C=C/C=C/1C What is its recorded AUC(0-t)?
266

Please do the same for CO[C@H]1C[C@@H]2CC[C@@H](C)[C@@](O)(O2)C(=O)C(=O)N2CCCC[C@H]2C(=O)O[C@H]([C@H](C)C[C@@H]2CC[C@@H](OC(=O)C(C)(CO)CO)[C@H](OC)C2)CC(=O)[C@H](C)/C=C(\C)[C@@H](O)[C@@H](OC)C(=O)[C@H](C)C[C@H](C)/C=C/C=C/C=C/1C as well.
1740

====

AUC(0-t) for assorted molecules
protocol.notes: Pharmacokinetics alone and in combination, selumetinib + erlotinib arm
assay.setup: human, plasma, oral, AUC(0–12), geometric mean (% CV); dosed alone, selumetinib 75 mg cohort (N = 6); erlotinib 100 mg QD
Give your result in ng·h/mL as a bare value.

Entry C#Cc1cccc(Nc2ncnc3cc(OCCOC)c(OCCOC)cc23)c1 [Erlotinib, reference compound] has what AUC(0-t)?
13800

Same thing, different molecule: Cn1cnc2c(F)c(Nc3ccc(Br)cc3Cl)c(C(=O)NOCCO)cc21
3200

====

# maps each entry to its Cmax
protocol.notes: Pharmacokinetics alone and in combination, selumetinib + temsirolimus arm
Type: in vivo, human
assay.setup: human, plasma, iv, geometric mean (% CV); dosed alone, selumetinib 75 mg cohort (N = 6); temsirolimus 25 mg IV; read-out: Cmax
Quick reminder: number only, in ng/mL, skip the unit.

# smiles.notation, unit.descriptor, Cmax
data = [
    ("Cn1cnc2c(F)c(Nc3ccc(Br)cc3Cl)c(C(=O)NOCCO)cc21", "ng/mL", 1240),
]

For CO[C@H]1C[C@@H]2CC[C@@H](C)[C@@](O)(O2)C(=O)C(=O)N2CCCC[C@H]2C(=O)O[C@H]([C@H](C)C[C@@H]2CC[C@@H](O)[C@H](OC)C2)CC(=O)[C@H](C)/C=C(\C)[C@@H](O)[C@@H](OC)C(=O)[C@H](C)C[C@H](C)/C=C/C=C/C=C/1C , what is its reported Cmax?
49.5

====

protocol.notes: Pharmacokinetics alone and in combination, selumetinib + erlotinib arm
assay.setup: human, plasma, oral
quantity.kind: tmax

# molecule, tmax
records = [
    ("Cn1cnc2c(F)c(Nc3ccc(Br)cc3Cl)c(C(=O)NOCCO)cc21", "1.25 h"),
]

--- query ---
Entry C#Cc1cccc(Nc2ncnc3cc(OCCOC)c(OCCOC)cc23)c1 [Erlotinib, reference compound] : reported tmax = ?
1.5 h

====

protocol.notes: Pharmacokinetics alone and in combination, selumetinib + temsirolimus arm
Type: in vivo, human
assay.setup: human, plasma, iv, geometric mean (% CV); dosed in combination, selumetinib 50 mg BID (N = 22) + temsirolimus 25 mg IV; read-out: AUC(0–12)
// reported AUC(0–12) for each item listed
Return type: number; implicit unit ng·h/mL.

# smiles.notation, quantity.kind, number
rows = [
    ("Cn1cnc2c(F)c(Nc3ccc(Br)cc3Cl)c(C(=O)NOCCO)cc21", "AUC(0–12)", 2130),
]

Fill blank: measured AUC(0–12) of the molecule CO[C@H]1C[C@@H]2CC[C@@H](C)[C@@](O)(O2)C(=O)C(=O)N2CCCC[C@H]2C(=O)O[C@H]([C@H](C)C[C@@H]2CC[C@@H](OC(=O)C(C)(CO)CO)[C@H](OC)C2)CC(=O)[C@H](C)/C=C(\C)[C@@H](O)[C@@H](OC)C(=O)[C@H](C)C[C@H](C)/C=C/C=C/C=C/1C is ____.
1610

# repeat for CO[C@H]1C[C@@H]2CC[C@@H](C)[C@@](O)(O2)C(=O)C(=O)N2CCCC[C@H]2C(=O)O[C@H]([C@H](C)C[C@@H]2CC[C@@H](O)[C@H](OC)C2)CC(=O)[C@H](C)/C=C(\C)[C@@H](O)[C@@H](OC)C(=O)[C@H](C)C[C@H](C)/C=C/C=C/C=C/1C
584
